B1: library; numbered along this chain (parent)
chain: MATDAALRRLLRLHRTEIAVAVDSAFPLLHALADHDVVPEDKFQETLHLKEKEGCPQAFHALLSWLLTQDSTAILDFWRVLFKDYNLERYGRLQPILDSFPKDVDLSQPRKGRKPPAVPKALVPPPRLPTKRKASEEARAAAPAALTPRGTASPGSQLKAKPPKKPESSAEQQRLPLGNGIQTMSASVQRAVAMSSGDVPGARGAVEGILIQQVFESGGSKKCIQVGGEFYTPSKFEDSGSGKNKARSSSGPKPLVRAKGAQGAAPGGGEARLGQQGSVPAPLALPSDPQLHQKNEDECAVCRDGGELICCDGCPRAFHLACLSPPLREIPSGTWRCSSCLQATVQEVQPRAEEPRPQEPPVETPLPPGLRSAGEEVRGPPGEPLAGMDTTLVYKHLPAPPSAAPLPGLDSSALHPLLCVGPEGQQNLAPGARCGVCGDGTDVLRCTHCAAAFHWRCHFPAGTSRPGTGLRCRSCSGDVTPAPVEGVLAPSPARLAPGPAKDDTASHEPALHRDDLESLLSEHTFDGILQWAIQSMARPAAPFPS

- Variants of: B1
- Experimental details: AIRE transcriptional activation functional score (insulin promoter-GFP; nonsense median 0, synonymous median 1) (normalised score); higher = higher AIRE activity (more reporter activation)
- Assay context: with insulin promoter-GFP reporter in HEK293
Quantity: AIRE transcriptional activation functional score

Guide cases for AIRE transcriptional activation functional score, answers given:
| Alteration | Result |
| --- | --- |
| L7W | 0.0852 |
| T390E | -0.73 |
| F43M | 0.757 |

Asked: Any idea what its AIRE transcriptional activation functional score is? The variant is K165M
Given back: 1.15

Asked: Same question, E53S this time
Given back: 0.701

Asked: Same question, K114Y this time
Given back: 1.51

Asked: Same question, P148W this time
Given back: 0.0844

Asked: Same question, A117Y this time
Given back: 1.76

Asked: Same question, A432S this time
Given back: 0.578

Asked: Same question, A505R this time
Given back: 0.832

Asked: Same question, N86R this time
Given back: -0.161

Asked: Same question, G438T this time
Given back: 0.646

Asked: Same question, I209A this time
Given back: 0.165

Asked: Same question, P368G this time
Given back: 1.05
